tested on: IL-17 secretion in mouse splenocyte; assay: Mouse IL-17 production assay using mouse splenocyte; format: cell-based; settings: Th17 differentiation, 72 h, n = 3, read-out: inhibition of secretion of IL-17 in mouse splenocyte, average IC50
endpoint.label: pIC50
pIC50 is a log-scale quantity: -log10 of the concentration expressed in molar.

In: Any idea what pIC50 was measured for CCS(=O)(=O)c1ccc([C@H](CCO)c2nc3c(Cl)c(N4CCC(F)(F)CC4)c(Cl)cc3[nH]2)cc1 ?
Out: 7.27

---

assay: in vivo; conditions: female, C57BL/6, mouse, Exposure in skin
endpoint.label: concentration at 6 h (ng/g)
Entry rule: numbers only, all in ng/g.

In: Which concentration at 6 h value is on record for CCS(=O)(=O)c1ccc([C@H](CCO)c2nc3c(Cl)c(N4CCC(F)(F)CC4)c(Cl)cc3[nH]2)cc1 ?
Out: 9710

---

test: Liver microsomal stability, human; type: in vitro ADME; details: human, liver microsomes, pH 7.4; 1 µM compound, 0.5 mg/ml microsome, NADPH, 37 °C; read-out: Liver microsomal stability, t1/2, Human
endpoint.label: half-life at 1 µM (min)
Supply the numeric figure in min, leaving out any unit text.

# molecular.string, half-life at 1 µM, min
rows = [
    ("CCS(=O)(=O)c1ccc([C@H](CCO)c2nc3c(Cl)c(N4CCC(F)(F)CC4)c(Cl)cc3[nH]2)cc1", 2.3),
]

Okay, now this compound:
In: Endpoint output: half-life at 1 µM of CCS(=O)(=O)c1ccc(Cc2nc3c(Cl)c(N4CCC(F)(F)CC4)c(Cl)cc3[nH]2)cc1 . Value?
Out: 18.5

---

assay: Oral PK in SD rats; format: in vivo; details: male, rat, plasma, 5 mg/kg oral, read-out: Exposure in SD Rat, t1/2 (converted)
endpoint.label: half-life (h)
Hi! Could you send only the number? It should be in h, unit omitted.

In: Which half-life is reported for this compound? CCS(=O)(=O)c1ccc(Cc2nc3c(Cl)c(-c4ccccc4OC(F)(F)F)c(Cl)cc3[nH]2)c(Cl)c1 [Compound 1]
Out: 12.8

---

target: RORγ (Homo sapiens); experiment: RORγ luciferase reporter assay; settings: nuclear reporter assay, n = 3; read-out: inhibition of the RORγ transcriptional activity, average IC50
Sequence (P51449 260-518 limits assumed): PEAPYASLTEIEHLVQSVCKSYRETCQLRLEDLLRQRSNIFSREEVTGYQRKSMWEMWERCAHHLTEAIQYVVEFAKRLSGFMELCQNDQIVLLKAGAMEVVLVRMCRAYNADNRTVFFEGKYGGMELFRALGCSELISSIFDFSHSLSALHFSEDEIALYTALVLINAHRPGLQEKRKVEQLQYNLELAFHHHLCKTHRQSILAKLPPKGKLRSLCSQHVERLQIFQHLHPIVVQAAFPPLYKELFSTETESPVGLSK
endpoint.label: pIC50
// scale note: pIC50 = -log10(conc_M); give the bare number

In: Consider the compound shown here: CCS(=O)(=O)c1ccc([C@H](CCO)c2nc3c(Cl)c(N4CCC(F)(F)CC4)c(Cl)cc3[nH]2)cc1 What is its recorded pIC50?
Out: 7.82

---

Experiment: Liver microsomal stability, human
Assay type: in vitro ADME
Conditions: pH 7.4; range across human, rat and mouse liver microsomes; read-out: t1/2 in human, rat and mouse liver microsome stability assays
Description: The compound was mixed with 0.5 mg/ml human liver microsome (Thermal Fisher) at a final concentration of 1 µM in 100 mM potassium phosphate buffer, pH 7.4. The reactions were initiated by the addition of 1 mM NADPH. Samples in duplicate were incubated at 37 °C with mixing. […] Peak areas were measured to calculate half-life according to the formula t1/2 = − 0.693/slope of linear regression analysis of ln [concentration] versus incubation time. […]
endpoint.label: half-life at 1 µM

In: Record request: half-life at 1 µM value, item CCS(=O)(=O)c1ccc(Cc2nc3c(Cl)c(N4CCC(F)(F)CC4)c(Cl)cc3[nH]2)cc1
Out: 7.8 to 34.5 min

# credit: paper PMC8080595
